Assay read-out IC50; system under study: KAT6A (Homo sapiens).

# count of solved cases: 8
## Task Give reported IC50 value for "Cc1cc(-c2ccccc2)cc(C(=O)NNS(=O)(=O)C2CN(Cc3ccccc3)C2)c1F"
## Result 10 to 50 µM

## Task Give reported IC50 value for Cc1cc(-c2ccccc2)cc(C(=O)NNS(=O)(=O)CC2CCCN(C(=O)OC(C)(C)C)C2)c1F (centres unmarked)
## Result ≤ 10 µM

## Task Give reported IC50 value for "O=C(NNS(=O)(=O)c1ccccc1)c1ncccc1F"
## Result 50 to 100 µM

## Task Give reported IC50 value for Cc1cc(-c2ccccc2)cc(C(=O)NNS(=O)(=O)C2CC3CCC(C2)N3C(=O)OC(C)(C)C)c1F (centres unmarked)
## Result 10 to 50 µM

## Task Give reported IC50 value for "COc1ccc(S(=O)(=O)NNC(=O)c2c(F)ccc(-c3ccccc3)c2C)cc1"
## Result 10 to 50 µM

## Task Give reported IC50 value for "C=CCn1nc(NNS(=O)(=O)c2ccccc2)c2ccccc21"
## Result > 100 µM

## Task Give reported IC50 value for "Cc1nc(-c2ccccc2)cc(C(=O)NNS(=O)(=O)C2CCCCC2)c1F"
## Result 10 to 50 µM

## Task Give reported IC50 value for "CC(=O)N1CCC(CS(=O)(=O)NNC(=O)c2cc(-c3cccc(F)c3)cc(C)c2F)CC1"
## Result ≤ 10 µM

Others:
## Task Give reported IC50 value for "Cc1cc(-c2ccccc2)cc(C(=O)NNS(C)(=O)=O)c1F"
## Result 10 to 50 µM

## Task Give reported IC50 value for "CCc1cc(F)cc(-c2cc(Cl)c(F)c(C(=O)NNS(=O)(=O)C3CCCCC3)c2)c1"
## Result 10 to 50 µM

## Task Give reported IC50 value for "COc1cc(Cl)c(F)c(C(=O)NNS(=O)(=O)C2CCCCC2)c1"
## Result > 100 µM

## Task Give reported IC50 value for COCCN1CCCC(CS(=O)(=O)NNC(=O)c2cc(-c3ccccc3)cc(C)c2F)C1 (centres unmarked)
## Result ≤ 10 µM

## Task Give reported IC50 value for "O=C(NCCO)c1cc(Cl)c(F)c(C(=O)NNS(=O)(=O)C2CCCCC2)c1"
## Result > 100 µM

---

Overview of recorded pIC50 for various molecules
Molecular target: KAT6A (Homo sapiens, UniProt Q92794)
Sequence (Q92794 with tags, fused parts or gaps): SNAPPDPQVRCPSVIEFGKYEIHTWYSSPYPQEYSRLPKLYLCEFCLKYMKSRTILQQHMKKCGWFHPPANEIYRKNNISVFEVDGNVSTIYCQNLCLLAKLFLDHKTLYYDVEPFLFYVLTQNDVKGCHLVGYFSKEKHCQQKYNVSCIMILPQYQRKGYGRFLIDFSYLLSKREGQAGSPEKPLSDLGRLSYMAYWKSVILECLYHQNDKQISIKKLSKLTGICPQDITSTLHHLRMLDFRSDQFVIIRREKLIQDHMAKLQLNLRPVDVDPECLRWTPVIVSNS
pIC50: −log10 of the molar value.

## Task Give reported pIC50 for CC(=O)N1CCCC(S(=O)(=O)NNC(=O)c2cc(-c3ccccc3)cc(C)c2F)C1 (centres unmarked) [Compound I-102] (KAT6A (Homo sapiens, UniProt Q92794))
## Result 4.30 to 5.00

## Task Give reported pIC50 for Cc1c(F)c(C(=O)NNS(=O)(=O)C2CCCCC2)nn1C [Compound I-475] (KAT6A (Homo sapiens, UniProt Q92794))
## Result < 4.00

## Task Give reported pIC50 for CC(=O)N1CCC(CS(=O)(=O)NNC(=O)c2cc(-c3ccccc3)cc(C)c2F)C1 (centres unmarked) [Compound I-335] (KAT6A (Homo sapiens, UniProt Q92794))
## Result ≥ 5.00

---

Assay read-out pIC50; system under study: KAT6A (Homo sapiens, UniProt Q92794).
pIC50: −log10 of the molar value.

## Task Give reported pIC50 value for CCC(=O)N1CCCC(CS(=O)(=O)NNC(=O)c2cc(-c3cccc(F)c3)cc(C)c2F)C1 (stereo not drawn)
## Result ≥ 5.00

## Task Give reported pIC50 value for "Cc1cc(-c2ccc(C(C)C)cc2)cc(C(=O)NNS(=O)(=O)c2ccccc2)c1F"
## Result ≥ 5.00

## Task Give reported pIC50 value for "O=C(NNS(=O)(=O)C1CCOCC1)c1cc(Cn2ccnc2)cc(Cl)c1F"
## Result < 4.00

## Task Give reported pIC50 value for "Cc1cc(-c2ccccc2)cc(C(=O)NNS(=O)(=O)C2CN(CCc3ccccc3)C2)c1F"
## Result 4.30 to 5.00

## Task Give reported pIC50 value for "CNC(=O)c1cccc(-c2cc(C)c(F)c(C(=O)NNS(=O)(=O)C3CCCCC3)c2)c1"
## Result < 4.00

---

Overview of recorded pIC50 for various molecules
Molecular target: KAT5 (Homo sapiens, UniProt Q92993)
Construct: His-TEV tag (N, cleaved yes); made in house
Sequence (Q92993 with tags, fused parts or gaps): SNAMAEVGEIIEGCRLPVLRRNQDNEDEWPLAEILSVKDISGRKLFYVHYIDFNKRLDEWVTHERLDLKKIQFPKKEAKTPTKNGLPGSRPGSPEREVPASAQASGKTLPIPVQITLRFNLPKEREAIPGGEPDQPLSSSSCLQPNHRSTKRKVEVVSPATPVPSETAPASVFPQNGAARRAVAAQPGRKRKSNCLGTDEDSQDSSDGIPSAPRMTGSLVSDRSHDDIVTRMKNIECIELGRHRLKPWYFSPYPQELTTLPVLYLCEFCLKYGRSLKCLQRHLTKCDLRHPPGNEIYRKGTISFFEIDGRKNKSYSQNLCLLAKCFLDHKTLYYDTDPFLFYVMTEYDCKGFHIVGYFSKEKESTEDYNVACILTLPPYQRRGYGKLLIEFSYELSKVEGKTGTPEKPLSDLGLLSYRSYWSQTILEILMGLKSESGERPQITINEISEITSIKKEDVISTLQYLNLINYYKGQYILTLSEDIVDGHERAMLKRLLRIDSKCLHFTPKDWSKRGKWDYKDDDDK
Assay: KAT5 enzyme inhibition assay (SAMDI mass spectrometry)
Assay type: biochemical
Settings: His-TEV-FL KAT5-Flag enzyme construct
pIC50: −log10 of the molar value.

# count of solved cases: 3
## Task Give reported pIC50 value for COc1cccc(C(=O)NNS(=O)(=O)c2ccccc2)c1 [Compound I-182]
## Result < 4.00

## Task Give reported pIC50 value for Cc1cc(-c2ccccc2)cc(C(=O)NNS(=O)(=O)C2CN(C(=O)C(C)C)C2)c1F [Compound I-114]
## Result < 4.00

## Task Give reported pIC50 value for Cc1cc(-c2ccccc2)cc(C(=O)NNS(=O)(=O)C2CN(Cc3cccc(Cl)c3)C2)c1F [Compound I-28]
## Result < 4.00

Others:
## Task Give reported pIC50 value for Cc1cc(-c2ccccc2)cc(C(=O)NNS(=O)(=O)c2ccc(CO)cc2)c1F [Compound I-147]
## Result 4.30 to 5.00

## Task Give reported pIC50 value for Cc1cc(-c2ccccc2)cc(C(=O)NN(C)S(=O)(=O)c2ccccc2)c1F [Compound I-242]
## Result < 4.00

---

pIC50: −log10 of the molar value.
Assay read-out pIC50; system under study: KAT5 (Homo sapiens, UniProt Q92993).

## Task Give reported pIC50 for Cc1cccc(-c2cc(C)c(F)c(C(=O)NNS(=O)(=O)C3CCCCC3)c2)c1 [Compound I-325] (KAT5 (Homo sapiens, UniProt Q92993))
## Result ≥ 5.00

Others:
## Task Give reported pIC50 for Cc1cc(-c2ccccc2)c(F)c(C(=O)NNS(=O)(=O)c2ccccc2)c1F [Compound I-223] (KAT5 (Homo sapiens, UniProt Q92993))
## Result ≥ 5.00

---

pIC50: −log10 of the molar value.
Assay read-out pIC50; system under study: UniProt Q92794.

## Task Give reported pIC50 value for "Cc1cc(-c2ccccc2)cc(C(=O)NNS(=O)(=O)C2CN(Cc3ccc(Cl)cc3)C2)c1F"
## Result < 4.00

Others:
## Task Give reported pIC50 value for "Cc1cc(-c2ccccc2)cc(C(=O)NNS(=O)(=O)C(C)(C)C)c1F"
## Result < 4.00

---

Assay read-out IC50; system under study: KAT5 (Homo sapiens, UniProt Q92993).

## Task Give reported IC50 value for Cc1cc(-c2ccccc2)cc(C(=O)NNS(=O)(=O)C2CN(Cc3ccccc3Cl)C2)c1F [Compound I-37]
## Result 10 to 50 µM

## Task Give reported IC50 value for O=C(NNS(=O)(=O)C1CCOCC1)c1cc(Cn2ccnc2)cc(Cl)c1F [Compound I-440]
## Result > 100 µM

## Task Give reported IC50 value for CCN1CCC(S(=O)(=O)NNC(=O)c2cc(-c3ccccc3)cc(C)c2F)CC1 [Compound I-91]
## Result 10 to 50 µM

## Task Give reported IC50 value for Cc1cc(-c2ccccc2)cc(C(=O)NNS(=O)(=O)CC2CCCN(C(=O)C(C)C)C2)c1F (centres unmarked) [Compound I-369]
## Result ≤ 10 µM

## Task Give reported IC50 value for Cc1cc(-c2cccc(C(=O)OCc3ccccc3)c2)cc(C(=O)NNS(=O)(=O)c2ccccc2)c1F [Compound I-449]
## Result 50 to 100 µM

## Task Give reported IC50 value for Cc1cc(-c2cccc(F)c2)cc(C(=O)NNS(=O)(=O)CC2CCN(C(=O)CCN(C)C)CC2)c1F [Compound I-432]
## Result 10 to 50 µM

## Task Give reported IC50 value for Cc1cc(-c2ccccc2)nc(C(=O)NNS(=O)(=O)C2CCCCC2)c1F [Compound I-483]
## Result 50 to 100 µM

Now for another entry.
## Task Give reported IC50 value for Cc1cc(-c2ccccc2)cc(C(=O)NNS(=O)(=O)Cc2ccccc2)c1F [Compound I-9]
## Result ≤ 10 µM

---

Assay read-out pIC50; system under study: KAT6A (Homo sapiens, UniProt Q92794).
pIC50: −log10 of the molar value.

# count of solved cases: 7
## Task Give reported pIC50 value for "COc1ccc(CS(=O)(=O)NNC(=O)c2cc(-c3ccccc3)cc(C)c2F)cc1"
## Result 4.30 to 5.00

## Task Give reported pIC50 value for "Cc1cc(-c2ccc(F)cc2)cc(C(=O)NNS(=O)(=O)C2CCCCC2)c1F"
## Result 4.00 to 4.30

## Task Give reported pIC50 value for O=C(NNS(=O)(=O)CC1CCCN(C(=O)C2CCOCC2)C1)c1cc(-c2ccccc2)cc(Cl)c1F (centres unmarked)
## Result ≥ 5.00

## Task Give reported pIC50 value for "Cc1cc(C(=O)NNS(=O)(=O)c2ccccc2)cc(-c2ccccc2)c1F"
## Result ≥ 5.00

## Task Give reported pIC50 value for "O=C(NNS(=O)(=O)C1CCCCC1)c1cc(-c2ccccc2)cc(Cl)c1F"
## Result ≥ 5.00

## Task Give reported pIC50 value for O=C(NNS(=O)(=O)CC1CCCNC1)c1cc(-c2ccccc2)cc(Cl)c1F (centres unmarked)
## Result 4.30 to 5.00

## Task Give reported pIC50 value for COc1ccc(CN2CCC(S(=O)(=O)NNC(=O)c3cc(-c4ccccc4)cc(C)c3F)C2)cc1 (centres unmarked)
## Result 4.30 to 5.00

Others:
## Task Give reported pIC50 value for "Cc1cc(-c2ccccc2F)cc(C(=O)NNS(=O)(=O)c2ccccc2)c1F"
## Result ≥ 5.00
